Source listed as PubChem BioAssay AID1851.

assayed-system: Cytochrome P450 2D6 (Homo sapiens) (UniProt P10635)
Sequence (P10635 whole entry, looked up): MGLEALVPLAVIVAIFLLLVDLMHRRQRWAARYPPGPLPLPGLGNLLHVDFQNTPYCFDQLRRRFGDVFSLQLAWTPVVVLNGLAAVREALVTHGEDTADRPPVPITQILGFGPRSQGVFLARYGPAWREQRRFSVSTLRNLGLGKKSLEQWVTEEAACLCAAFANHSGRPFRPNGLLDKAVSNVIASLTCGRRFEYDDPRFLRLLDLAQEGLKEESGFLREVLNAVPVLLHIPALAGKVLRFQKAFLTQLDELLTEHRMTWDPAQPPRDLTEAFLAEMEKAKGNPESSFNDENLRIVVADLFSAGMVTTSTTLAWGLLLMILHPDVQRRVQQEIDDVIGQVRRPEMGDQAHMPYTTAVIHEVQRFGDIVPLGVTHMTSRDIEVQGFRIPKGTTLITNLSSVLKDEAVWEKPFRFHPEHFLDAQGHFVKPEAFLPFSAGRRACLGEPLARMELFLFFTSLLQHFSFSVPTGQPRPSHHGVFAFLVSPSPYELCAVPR
test-details: Cytochrome panel assay with activity outcomes
measurement-setup: recombinant CYP, pro-luciferin dealkylation, luminescence, p450-cyp2d6; series mostly up to 57.1 µM
Among all 16,000 compounds or so, about 2,600 (16%) were called active. Not shown: some 20% with an inconclusive outcome. Calls follow the shape of the dose curve; as a rule, active = well fitted curve in the direction sought with a large enough effect; inconclusive = small, poorly fitted or top-dose-only effect, or effect the other way; inactive = no such curve, though single readings can be large or run the other way. The list is a sample of the results.
Tick one outcome: active, inactive

Cc1ccc(OCCCN2C(=O)C(=O)c3cccc(C)c32)cc1    active
CCCCCCCCCCCCCCCC[N+](C)(C)CCN(Cc1ccc(OC)cc1)c1ncccn1    active
COc1cc(/C=C2/C(=N)N3OC(C)=CC3=NC2=O)ccc1OCCOc1ccc(C)cc1    inactive
c1ccc2c(CC3=NCCN3)cccc2c1    active
CCc1nc2c(c(SC)nn2-c2ccccc2)c(N)c1C(=O)OC    inactive
O=C(COc1ccc(-c2ccccc2)cc1)N/N=C/c1ccccc1Br    inactive

**Q:** Short answer needed: outcome of this test for CCOC(=O)C1=NOC(CNC(=O)C2=NOC(CNC(=O)c3c(-c4ccccc4Cl)noc3C)C2)C1 (stereo unspecified) ?
**A:** inactive

**Q:** Short answer needed: outcome of this test for COc1ccccc1CCn1c(=O)c(-c2ccc(Cl)cc2)nc2cncnc21 ?
**A:** inactive

**Q:** Short answer needed: outcome of this test for COCCn1c(=O)c(C)nc2cncnc21 ?
**A:** inactive

**Q:** Short answer needed: outcome of this test for CCO/C(C)=N/n1c2nc3ccccc3nc2c2c(=O)n(CC(C)C)c(C)nc21 ?
**A:** inactive

**Q:** Short answer needed: outcome of this test for C[C@@H]1c2ccccc2CN1CC1=NCCN1 ?
**A:** inactive

====

assayed-system: Cytochrome P450 2D6 (Homo sapiens)
test-details: Cytochrome panel assay with activity outcomes
measurement-setup: recombinant CYP, pro-luciferin dealkylation, luminescence, p450-cyp2d6; series mostly up to 57.1 µM
Method: The P450 gene superfamily is involved in the metabolism and clearance of xenobiotics. This assay used various human CYP P450 isozymes to measure the dealkylation of various pro-luciferin substrates to luciferin. The luciferin is then measured by luminescence after the addition of a luciferase detection reagent. […] Inhibitors and some substrates limit the production of luciferin, and decrease measured luminescence. […] 8, Detection, 1 sec, ViewLux luminescent read […]
The whole screen tested about 16,000 compounds, of which about 2,600 (16%) were called active. Not shown: some 20% with an inconclusive outcome. The call rests on the fitted dose curve; in most records, active means well fitted curve in the direction sought with a large enough effect; inconclusive means small, poorly fitted or top-dose-only effect, or effect the other way; inactive means no such curve, though single readings can be large or run the other way. Not all results are given here.
Tick one outcome: Y for active, N for inactive

Examples from the recorded data:
CC(=O)Nc1ccc(N2C(=O)CSC2c2c(F)cccc2Cl)cc1 (configuration not stated)    N
O=C(c1cccc(F)c1)N1CCC2(CCCN(c3ccccc3)C2)CC1    N
O=C(c1cccc(F)c1)N1CCC2(CC1)CN(c1cccc(-c3ccccc3)c1)C2    N
CCN(CCCNC(=O)C1CCN(S(=O)(=O)CC)CC1)c1cccc(C)c1    Y

**Q:** Short answer needed: outcome of this test for C=C(C)COc1ccc(-c2n[nH]c(C)c2-c2ccc(OC)cc2)c(O)c1 ?
**A:** N

**Q:** Short answer needed: outcome of this test for O=C1OC(OC2CCCCC2)(c2ccccc2)c2ccccc21 (configuration not stated) ?
**A:** N

**Q:** Short answer needed: outcome of this test for Oc1ccc(-c2[nH]ncc2-c2ccc(Cl)cc2)c(O)c1 ?
**A:** Y

**Q:** Short answer needed: outcome of this test for Cc1sc2nc(SCc3nc(-c4cccs4)no3)n(-c3ccccc3)c(=O)c2c1C ?
**A:** N

**Q:** Short answer needed: outcome of this test for CC(C)CN1CC2(CCN(C(=O)c3cccc(F)c3)CC2)C1 ?
**A:** N

**Q:** Short answer needed: outcome of this test for Oc1c(Br)cc(CN(Cc2cc(Br)c(O)c(Br)c2)C2CCCCC2)cc1Br ?
**A:** Y

**Q:** Short answer needed: outcome of this test for O=C1CSC(c2ccccc2F)N1c1cc(Cl)ccc1O (configuration not stated) ?
**A:** Y

**Q:** Short answer needed: outcome of this test for CC(C)(C)c1cc(Br)c(O)c(CN(Cc2cc(C(C)(C)C)cc(Br)c2O)C2CCCCC2)c1 ?
**A:** Y

**Q:** Short answer needed: outcome of this test for O=C(c1cccc(F)c1)N1CCC2(CC1)CN(Cc1ccccc1)C2 ?
**A:** Y

**Q:** Short answer needed: outcome of this test for C/C(=C\C1CCCCC1)C(NC(=O)c1ccc(C(F)(F)F)cc1)c1ccc(-c2ccccc2)cc1 (configuration not stated) ?
**A:** N

====

assayed-system: Cytochrome P450 2D6 (Homo sapiens) (UniProt P10635)
test-details: Cytochrome panel assay with activity outcomes
measurement-setup: recombinant CYP, pro-luciferin dealkylation, luminescence, p450-cyp2d6; series mostly up to 57.1 µM
Experimental: The P450 gene superfamily is involved in the metabolism and clearance of xenobiotics. This assay used various human CYP P450 isozymes to measure the dealkylation of various pro-luciferin substrates to luciferin. The luciferin is then measured by luminescence after the addition of a luciferase detection reagent. […] Inhibitors and some substrates limit the production of luciferin, and decrease measured luminescence. […] 8, Detection, 1 sec, ViewLux luminescent read […]
In all, about 16,000 compounds went through this assay and about 2,600 (16%) were called active. Roughly 20% stayed inconclusive and do not appear here. Calls come from the whole dose curve; as a rule, active = well fitted curve in the direction sought with a large enough effect; inconclusive = small, poorly fitted or top-dose-only effect, or effect the other way; inactive = no such curve, though single readings can be large or run the other way. These entries were drawn from the full list.
Tick one outcome: yes (1) for active, no (0) for inactive

Examples from the recorded data:
Nc1nc(NCc2ccccc2)nc(Nc2cccc(F)c2)c1[N+](=O)[O-]    no (0)
Cc1ccc(CNc2nc(N)c([N+](=O)[O-])c(Nc3ccc(F)cc3)n2)cc1    no (0)
O=C1Nc2ccc([N+](=O)[O-])cc2C1(O)N1CCCCCC1 (stereo not given)    no (0)
COc1cccc(Nc2ncc3nc(-c4ccc(Cl)cc4)c(=O)n(CCC#N)c3n2)c1    no (0)

Alright, here's another molecule for you.
**Q:** Short answer needed: outcome of this test for CC[n+]1c(/C=C/Nc2ccccc2)oc2ccccc21 ?
**A:** yes (1)

====

Consider the following molecules; for each one, report its activity, negative = inhibition.
assayed-system: Cytochrome P450 2D6 (Homo sapiens) (UniProt P10635)
test-details: Cytochrome panel assay with activity outcomes; as to activity, negative = inhibition: % is scaled to controls: 0 for no effect and ±100 for the full control effect
measurement-setup: recombinant CYP, pro-luciferin dealkylation, luminescence, p450-cyp2d6; series mostly up to 57.1 µM
Experimental: The P450 gene superfamily is involved in the metabolism and clearance of xenobiotics. This assay used various human CYP P450 isozymes to measure the dealkylation of various pro-luciferin substrates to luciferin. The luciferin is then measured by luminescence after the addition of a luciferase detection reagent. […] Inhibitors and some substrates limit the production of luciferin, and decrease measured luminescence. […] 8, Detection, 1 sec, ViewLux luminescent read […]
Screen size: about 16,000 compounds; about 2,600 (16%) were called active. Not shown: some 20% with an inconclusive outcome. Not all results are given here.

Nc1ncnc2c1ncn2[C@H]1O[C@@H](C(=O)OCCO)[C@@H](O)[C@H]1O    17% [at 11.4 µM] (inactive)
Nc1ncnc2c1nc(-c1ccccc1)n2[C@H]1O[C@@H](CO)[C@@H](O)[C@H]1O    11.6% [at 11.4 µM] (inactive)
CO[C@@H]1/C=C\O[C@]2(C)Oc3c(C)c(O)c4c(O)c(cc(O)c4c3C2=O)NC(=O)/C(C)=C\C=C/[C@H](C)[C@@H](O)[C@H](C)[C@H](O)[C@H](C)[C@H](OC(C)=O)[C@@H]1C    11.7% [at 11.4 µM] (inactive)

Okay, now this molecule:
Form: item Nc1nc(SCC(=O)O)[nH]c(=O)c1N ; test system Cytochrome P450 2D6 (Homo sapiens) (UniProt P10635); activity, negative = inhibition: 11% [at 11.4 µM] (inactive)

====

assayed-system: Cytochrome P450 2D6 (Homo sapiens)
test-details: Cytochrome panel assay with activity outcomes
measurement-setup: recombinant CYP, pro-luciferin dealkylation, luminescence, p450-cyp2d6; series mostly up to 57.1 µM
Among all 16,000 compounds or so, about 2,600 (16%) were called active. Another 20% or so got no clear call; they are omitted. Calls come from the whole dose curve; as a rule, active = well fitted curve in the direction sought with a large enough effect; inconclusive = small, poorly fitted or top-dose-only effect, or effect the other way; inactive = no such curve, though single readings can be large or run the other way. The list is a sample of the results.
Tick one outcome: true for active, false for inactive

Examples from the recorded data:
CCN=C(Nc1ccc(Cl)cc1)c1cccnc1    false
COc1ccc(C[C@@H]2c3cc(OC)c(OC)cc3CC[N@+]2(C)CCC(=O)OCCCCCOC(=O)CC[N@@+]2(C)CCc3cc(OC)c(OC)cc3[C@H]2Cc2ccc(OC)c(OC)c2)cc1OC    false
Cc1cccc(NC(=O)c2cc(N3C(=O)CCC3=O)ccc2Cl)n1    false
COc1ccc(-n2ccnc2SCC(=O)Nc2ccc(OC)cc2OC)cc1    false
O=[N+]([O-])C(/C=C(\Cl)[N+](=O)[O-])=C1N(Cc2ccc(Cl)nc2)CCN1Cc1ccc(Cl)nc1    true
CC(=O)c1cccc(NC(=O)c2csc(-n3nc(C)cc3C(F)(F)F)n2)c1    false
CCn1c(SCC(=O)Nc2ccc3c(c2)OCCO3)nc2c(c1=O)SC(C)C2 (stereo not given)    false
CCCn1nnc(NC(=O)c2ccc(-c3cccc(Cl)c3)o2)n1    false
O=C(N/N=C/c1c(Nc2cccc(C(F)(F)F)c2)nc2ccccn2c1=O)c1ccccc1    false
COc1ccc(-n2ccnc2SCC(=O)Nc2ccccc2)cc1    true

**Q:** Short answer needed: outcome of this test for Nc1nc2c(nc(Br)n2[C@@H]2O[C@H]3COP(=O)(O)O[C@@H]3[C@H]2O)c(=O)[nH]1 ?
**A:** false
